The reported measurements were obtained from ChEMBL document CHEMBL1149140.

- TARGET OR TEST SYSTEM: CCR5 (Macaca fascicularis)
- ASSAY: Antagonistic activity against cynomolgus monkey C-C chemokine receptor type 5
PARAMETER: pIC50
Units for pIC50: none; it is -log10 of a concentration expressed in mol/L.

Simply: `Cc1nc(-c2ccncc2)nc(C)c1C(=O)N1CCC(C)(N2CCC(N(c3ccccc3)c3ccccc3)CC2)CC1` , CCR5 (Macaca fascicularis), pIC50 = 8.10

* * *

Would you mind telling me the reported bioavailability of each entry?
- ASSAY: Oral bioavailability in rat
- Format: ADME, organism-based
- PARTICULARS: in vivo
Entry rule: numbers only, all in %.

Form field bioavailability, entry `Cc1nc(-c2ccccc2)nc(C)c1C(=O)N1CCC(C)(N2CCC(N(c3ccccc3)c3ccccc3)CC2)CC1` : 86

Noted for `Cc1nc[n+]([O-])c(C)c1C(=O)N1CCC(C)(N2CCC(N(c3ccccc3)c3ccccc3)CC2)CC1` : its bioavailability reads 94

Looking up `CC1(N2CCC(N(c3ccccc3)c3ccccc3)CC2)CCN(C(=O)c2cccc3ccccc23)CC1` , I see its bioavailability listed as 100

In plain terms, `Cc1cccc(C)c1C(=O)N1CCC(C)(N2CCC(N(c3ccccc3)c3ccccc3)CC2)CC1` has a documented bioavailability of 62

Reported bioavailability for `Cc1cccc(C)c1C(=O)N1CCC(C)(N2CCC(N(Cc3ccccc3)c3ccccc3)CC2)CC1` was 85
